Field: GI50. Provide a value for each of the compounds that follow.
- Tested on: HCC 2998
- Experiment Description: NCI tumour cell line growth inhibition, 48 h
The source made the active and inactive calls. Rule as the data show it: active = GI50 up to about 1.1 µM and inactive = higher.

-- ask Provide measured GI50 value, entry: COc1ccc2nc3cccc([N+](=O)[O-])c3c(NCCC(=O)O)c2c1
-- reply > 10 µM (inactive)

-- ask Dear colleague, please send me the reported GI50 for CCOC1=C2N=C(C(CC)c3ccccc3F)N=C2C(=O)c2ccccc21 (stereo unspecified) when you can.
-- reply > 100 µM (inactive)

-- ask Give the measured GI50 for COC(=O)C1Cc2c(C)cccc2C1=O (stereo unspecified)
-- reply > 100 µM (inactive)

-- ask Note down GI50 recorded for NNC(=O)N/N=C1\C(=O)N(c2ccc(Cl)c(Cl)c2)C(=O)C(=O)C1c1nc2ccccc2s1 (stereo unspecified)
-- reply > 100 µM (inactive)

-- ask Assign GI50 to the following record: O=c1[nH]nc(Cc2ccc(Cl)cc2)n1/N=C/c1ccc([N+](=O)[O-])o1
-- reply 2.13 µM (inactive)

-- ask Look up and state reported GI50 for COC(=O)CCCc1ccc2c(c1)CC1(C2)Cc2cc3c(cc2C1)CCCC3
-- reply 26.7 µM (inactive)

-- ask Identify GI50 associated with the compound CN(C)P(=O)(/C(N)=N/Nc1ccc([N+](=O)[O-])cc1)N(C)C
-- reply > 100 µM (inactive)

-- ask Determine its reported GI50: N#C[BH2-][n+]1cn(C2CC(O)C(COP(=O)(O)OC3CC(n4c[n+]([BH2-]C#N)c5c(=O)[nH]c(N)nc54)OC3CO)O2)c2nc(N)[nH]c(=O)c21 (stereo unspecified)
-- reply > 100 µM (inactive)

-- ask Give GI50 for c1cncc(C2c3[nH]c4ccccc4c3CCN2CCN2CCCCC2)c1 (stereo unspecified)
-- reply > 100 µM (inactive)

-- ask Give reported GI50 value for N#CC1CCCCCCCCCCC(=O)N(CCCl)C1=O (stereo unspecified)
-- reply > 100 µM (inactive)

-- ask Provide only the value of recorded GI50 for CNC(=O)Oc1ccc(C(=S)Nc2ccc(Br)cc2)cc1
-- reply 17.8 µM (inactive)

====

- Tested on: UACC-257
- Experiment Description: NCI tumour cell line growth inhibition, 48 h
The source made the active and inactive calls. No stated cut-off is given here; in the data, active = GI50 up to about 1.1 µM and inactive = higher.
Give measured GI50 for each item. Keep answers brief.

-- ask Provide only the value of recorded GI50 for CC1CC/C(=C\c2ccc(Cl)cc2)C(=O)/C1=C\c1ccc(Cl)cc1 (stereo not drawn)
-- reply 42.7 µM (inactive)

-- ask Output measured GI50 for this item: COc1cccc(CCNc2c(C#N)c3n(c4ccccc4[n+]3C)c3ncccc23)c1
-- reply 21.9 µM (inactive)

-- ask Specify measured GI50 for COc1cc2c(cc1OCc1ccccc1)CNCC2 .
-- reply > 100 µM (inactive)

====

- System: NCI-H226
- Experiment Description: NCI tumour cell line growth inhibition, 48 h
Calls of active or inactive are those of the source. No stated cut-off is given here; in the data, active = GI50 up to about 1.1 µM and inactive = higher.
Assignment: determine reported GI50 for the given compounds.

-- ask Quickly give me recorded GI50 for CC12c3c4cc(Br)cc3Oc3cc(Br)cc(c31)Oc1cc(Br)cc(c12)O4
-- reply 11.2 µM (inactive)

-- ask Answer with the recorded GI50 for the compound listed here: O=C1C(=CNc2ccccc2Cl)C(=O)N(c2ccccc2)C(=O)N1c1ccccc1
-- reply > 100 µM (inactive)

-- ask Identify the reported GI50 for the following entry. N=C1NC2(O)C(=O)c3ccccc3C2(O)N1 (stereo not given)
-- reply > 100 µM (inactive)

-- ask Identify measured GI50 associated with OCCC/N=C1N=C(Cl)/C(=C\c2ccccc2)N\1
-- reply > 100 µM (inactive)

-- ask For the compound COc1ccc(/C=C2\C[C@H]3[C@@H]4CCC5=C/C(=N/O)CC[C@]5(C)[C@H]4CC[C@]3(C)\C2=N\O)cc1 , give its measured GI50 value.
-- reply 19.1 µM (inactive)

-- ask Respond only with GI50 recorded for Cc1cc(S(=O)(=O)Nc2n[nH]c(Nc3ccccc3)n2)c(S)cc1Cl
-- reply > 10 µM (inactive)

-- ask // fetch GI50 given entry Cc1ccc(/N=N/C(=N\NC(=O)c2ccc(C)cc2)c2ccc(N(CCC#N)CCC#N)cc2C)cc1
-- reply 20.7 µM (inactive)

-- ask For NCC(NC(=O)OCc1ccccc1)C(=O)O (stereo not given) , write its GI50.
-- reply > 50 µM (inactive)

-- ask Please supply the value of reported GI50 for the item CC(C)[C@@H]1CC[C@@H](C)C[C@H]1OC(=O)c1c2n(c3ccccc13)C[C@H]1OC(C)(C)O[C@@H]21
-- reply 22.3 µM (inactive)

-- ask Return GI50 (reported value) for this compound: Cc1cc(=O)n(-c2ccccc2C)c(C)n1
-- reply > 100 µM (inactive)

====

Kindly state GI50 for each of the entries shown.
- Tested on: HOP-62
- Experiment Description: NCI tumour cell line growth inhibition, 48 h
Activity calls are given as the source filed them. Rule as the data show it: active = GI50 up to about 1.1 µM and inactive = higher.

-- ask Supply measured GI50 of Cn1cnc([N+](=O)[O-])c1Sc1nnc(C(F)(F)F)n1C in your reply.
-- reply > 100 µM (inactive)

-- ask Return the recorded GI50 value; entry: Cn1ccnc1Sc1ccc(/C=N/NC(=O)c2ccccc2[N+](=O)[O-])cc1[N+](=O)[O-]
-- reply > 100 µM (inactive)

-- ask Read the entry NC(=O)N/N=C(/c1nc2ccc([N+](=O)[O-])cc2nc1O)C(O)c1ccco1 (stereo not drawn) and write its reported GI50.
-- reply 35.3 µM (inactive)

-- ask Fill in GI50 for record COc1ccc2nc3cccc([N+](=O)[O-])c3c(NCCC(=O)O)c2c1
-- reply > 10 µM (inactive)

-- ask Indicate its recorded GI50; the compound in question is O=c1[nH]nc(-c2ccccc2)n1/N=C/c1ccncc1
-- reply > 100 µM (inactive)

-- ask Supply measured GI50 of Cc1ccc(/C=C2\CCCC(C(NO)c3ccc(C)cc3)C2=NO)cc1 (stereo not drawn) in your reply.
-- reply 59.8 µM (inactive)

-- ask Respond only with GI50 recorded for C[C@@](Br)(C(=O)O)[C@H](Br)C(=O)O
-- reply > 100 µM (inactive)

-- ask Give me measured GI50, please, for this compound: N#C[BH2-][n+]1cn(C2CC(O)C(COP(=O)(O)OC3CC(n4c[n+]([BH2-]C#N)c5c(=O)[nH]c(N)nc54)OC3CO)O2)c2nc(N)[nH]c(=O)c21 (stereo not drawn)
-- reply > 100 µM (inactive)

-- ask Please indicate GI50 recorded for CC1=C(CO)C(=O)O[C@@H]([C@@H](C)[C@H]2CC[C@H]3[C@@H]4C[C@@H](O)[C@@]5(O)CC=CC(=O)[C@]5(C)[C@H]4CC[C@]23C)C1 [JABOROSALACTONE D]
-- reply 64 µM (inactive)

-- ask Answer with reported GI50 of Cc1ccc(S(=O)(=O)Nn2c(S)c(C#N)c(-c3ccc([N+](=O)[O-])cc3)c(C#N)c2=O)cc1
-- reply 98.2 µM (inactive)

-- ask Answer with the recorded GI50 for the compound listed here: N#CC1(C#N)C(C#N)(C#N)C1(C#N)C(N)=O
-- reply > 100 µM (inactive)

-- ask Provide measured GI50 value, entry: O=C1c2ccccc2C(=O)N1/N=C1/SC(=N\c2ccccc2)/C(=N/c2ccccc2)N1c1ccccc1
-- reply > 45.6 µM (inactive)

-- ask Answer with reported GI50 of N#CC1CCCCCCCCCCC(=O)N(CCCl)C1=O (stereo not drawn)
-- reply > 100 µM (inactive)

====

Task for the reader: assign each of the following compounds its reported GI50.
- Test system: HCC 2998
- Experiment Description: NCI tumour cell line growth inhibition, 48 h
The source made the active and inactive calls. Cut-off read from the data, not from the text of the source: active = GI50 up to about 1.1 µM and inactive = higher.

-- ask Query GI50 for CCOC(=O)c1c(N)sc2c1C(C(=O)OCC)CCC2 (stereo not drawn)
-- reply > 100 µM (inactive)

-- ask Note down GI50 recorded for CC(=O)OCC1OC(n2c(C)c(C(C)=O)c(-c3cccc4ccccc34)c(C#N)c2=S)C(OC(C)=O)C(OC(C)=O)C1OC(C)=O (stereo not drawn)
-- reply > 100 µM (inactive)

-- ask Indicate the recorded GI50 value for this compound: NC(=O)C(=CNC(=S)Nc1ccc(Cl)c(Cl)c1)C(N)=O
-- reply 26.8 µM (inactive)

====

- Tested on: NCI-H460
- Experiment Description: NCI tumour cell line growth inhibition, 48 h
The source made the active and inactive calls. Cut-off read from the data, not from the text of the source: active = GI50 up to about 1.1 µM and inactive = higher.
Outcome (select one): active, inactive

-- ask // outcome(item) with item = COc1ccc(Cl)cc1NC(=O)O/N=C(\Cl)C(C)C
-- reply inactive

-- ask What did the test return for COc1nc2c(c(O)c(C)c(=O)n2OC2OC(COC(C)=O)C(OC(C)=O)C(OC(C)=O)C2OC(C)=O)c(=O)n1C (centres undefined) ?
-- reply inactive

-- ask What did this assay record as the result for CCOC(=O)C1=C(C(=O)OCC)SC2(S1)C(C(=O)OCC)=C(C(=O)OCC)Sc1c2ssc1=O ?
-- reply inactive

-- ask Just curious, what result did CC(=O)Nc1ccc2c3c(cc(O)c2c1)N(C(=O)CCCCC(=O)Nc1ccc2c4c(cc(O)c2c1)N(C(=O)OC(C)(C)C)CC4CCl)CC3CCl (centres undefined) get here?
-- reply inactive

-- ask Hi, do you know how CCOC(=O)c1cc(C2CCN(Cc3ccccc3)C2=S)c(C(=O)C=[N+]=[N-])[nH]1 (centres undefined) came out in this test?
-- reply inactive

-- ask Write down the call the test reported for this compound. Item: CC1CCc2sc3nc(S)n(C)c(=O)c3c2C1 (centres undefined)
-- reply inactive

-- ask Outcome? CCC(C(=O)C(=O)OC)P1(=O)OC(C)(C)CN1C(C)(C)C (centres undefined)
-- reply inactive

-- ask What did this assay record as the result for O=C1C=CC2(C=C1)O[C@H](COCc1ccccc1)[C@@H](COCc1ccccc1)O2 ?
-- reply inactive

-- ask In this assay, the call recorded for CC(=O)O[C@H]1CCC2[C@@H]3CCC4c5nonc5CC[C@]4(C)C3CC[C@@]21C (some centres undefined) was what?
-- reply inactive

-- ask Per the assay record, what outcome was assigned to O=C1CSC(c2c[nH]c3ccccc23)N1c1ccc(Cl)cc1Cl (centres undefined) ?
-- reply inactive

-- ask # lookup: test call for CCCCCCCSc1nc2c(C(=O)OCC)ncn2c2ccccc12
-- reply inactive

-- ask For COc1ccc(NC(=O)CC(=O)N2N=C(N(CCC#N)c3ccccc3Cl)CC2c2ccccc2)cc1 (centres undefined) , what call appears in the results of this test?
-- reply inactive

-- ask Which outcome did this test record for the compound CCOC(=O)c1c(N=C(S)Nc2ccccc2)sc2c1CCN(C)C2 ?
-- reply inactive

-- ask State the result this test recorded for C=CCOc1cc(NC(=S)c2ccoc2C)ccc1OC .
-- reply inactive

-- ask Kindly provide the recorded test outcome for the following compound: CCOC(=O)c1[nH]c(Br)c(-c2ccc(OC)c(OC)c2)c1Br
-- reply active

-- ask // param item: COCc1nc2c(OC)c(-c3nc4ccc(N5CCN(C)CC5)cc4[nH]3)cc(OC)c2[nH]1 ; yields the recorded call
-- reply inactive

-- ask Hi, do you know how C[C@H](CCC(=O)O)[C@H]1CC[C@H]2[C@@H]3[C@@H](O)C[C@@H]4C[C@H](O)CC[C@]4(C)[C@H]3CC[C@]12C came out in this test?
-- reply inactive

-- ask Status in this test for CCOC(=O)Nc1cc2ccccc2c(/N=N/c2ccccc2)c1O ?
-- reply inactive

-- ask // param item: O=C1C=CC2(C=C1)CCC(=O)O2 ; yields the recorded call
-- reply inactive

Cited source for all entries: ChEMBL document CHEMBL1201862
